FYI, the data here is from ChEMBL document CHEMBL1146918.

- Test system: U-87 MG
- method: Antiproliferative activity against human U87 MG cell line
- Format: functional, cell-based, U-87MG ATCC
pIC50: −log10 of the molar value.
# pIC50 per entry

Challenge: Enter reported pIC50 observed with U-87 MG for O=c1oc2c3c4c(cc2cc1-c1nc2ccccc2[nH]1)CCCN4CCC3
Response given: 4.48

Challenge: Enter reported pIC50 observed with U-87 MG for O=c1oc2c3c4c(cc2cc1[N+](=O)[O-])CCCN4CCC3
Response given: < 4.15

Challenge: Enter reported pIC50 observed with U-87 MG for CC(=O)O[C@H]1C(=O)[C@@]2(C)[C@H]([C@H](OC(=O)c3ccccc3)[C@]3(O)C[C@H](OC(=O)[C@H](O)[C@@H](NC(=O)c4ccccc4)c4ccccc4)C(C)=C1C3(C)C)[C@]1(OC(C)=O)CO[C@@H]1C[C@@H]2O [PACLITAXEL]
Response given: 7.10

Challenge: Enter reported pIC50 observed with U-87 MG for CCN(CC)c1ccc2cc(-c3nc4ccccc4s3)c(=O)oc2c1
Response given: < 4.15

Challenge: Enter reported pIC50 observed with U-87 MG for O=Cc1cc2c3c(c1O)CCCN3CCC2
Response given: < 4.15

Continuing:
Challenge: Enter reported pIC50 observed with U-87 MG for CCN(CC)c1ccc2cc(-c3nc4ccccc4[nH]3)c(=O)oc2c1
Response given: 4.82

Challenge: Enter reported pIC50 observed with U-87 MG for CCN(CC)c1ccc2cc(C(C)=O)c(=O)oc2c1
Response given: < 4.15

Challenge: Enter reported pIC50 observed with U-87 MG for CCN(CC)c1ccc2c(C#N)c(-c3nc4ccccc4s3)c(=O)oc2c1
Response given: < 4.15

====

# pIC50 per entry
- Tested on: HeLa
- method: Antiproliferative activity against human HeLa cell line
- Type: functional, cell-based
pIC50: −log10 of the molar value.

Guide cases for pIC50, answers given:
Challenge: Tell me the measured pIC50 of CCN(CC)c1ccc2cc(C(C)=O)c(=O)oc2c1 , please.
Response given: < 4.15

Challenge: Tell me the measured pIC50 of CC(=O)O[C@H]1C(=O)[C@@]2(C)[C@H]([C@H](OC(=O)c3ccccc3)[C@]3(O)C[C@H](OC(=O)[C@H](O)[C@@H](NC(=O)c4ccccc4)c4ccccc4)C(C)=C1C3(C)C)[C@]1(OC(C)=O)CO[C@@H]1C[C@@H]2O [PACLITAXEL] , please.
Response given: 6.33

Challenge: Tell me the measured pIC50 of O=c1oc2c3c4c(cc2cc1-c1nc2ccccc2[nH]1)CCCN4CCC3 , please.
Response given: 4.94

Challenge: Tell me the measured pIC50 of CCN(CC)c1ccc2cc(-c3nc4ccccc4[nH]3)c(=O)oc2c1 , please.
Response given: < 4.15

Challenge: Tell me the measured pIC50 of CCN(CC)c1ccc2c(C#N)c(-c3nc4ccccc4s3)c(=O)oc2c1 , please.
Response given: < 4.15

Continuing:
Challenge: Tell me the measured pIC50 of O=c1oc2c3c4c(cc2cc1[N+](=O)[O-])CCCN4CCC3 , please.
Response given: < 4.15

Challenge: Tell me the measured pIC50 of O=Cc1cc2c3c(c1O)CCCN3CCC2 , please.
Response given: < 4.15

Challenge: Tell me the measured pIC50 of CCN(CC)c1ccc2cc(-c3nc4ccccc4s3)c(=O)oc2c1 , please.
Response given: < 4.15
